Sourced from ChEMBL document CHEMBL1134136

This listing pairs compounds with measured MIC.
System: Escherichia coli
Assay: Antibacterial activity against Escherichia coli (OC 2605)
Assay type: functional

Answered examples (6):
[
  {
    "COMPOUND": "CC(=O)NC[C@H]1CN(c2ccc(OC3CCN(C(=O)COCc4ccccc4)C3)c(F)c2)C(=O)O1 (stereo partly specified)",
    "ASSAYED SYSTEM": "Escherichia coli",
    "PARAMETER": "MIC",
    "ASSAY VALUE": "> 128 mg/L"
  },
  {
    "COMPOUND": "CC(=O)NC[C@H]1CN(c2ccc(OC3CCCN(C(=O)CO)C3)c(F)c2)C(=O)O1 (stereo partly specified)",
    "ASSAYED SYSTEM": "Escherichia coli",
    "PARAMETER": "MIC",
    "ASSAY VALUE": "> 128 mg/L"
  },
  {
    "COMPOUND": "CC(=O)NC[C@H]1CN(c2ccc(N3CCOCC3)c(F)c2)C(=O)O1 [LINEZOLID]",
    "ASSAYED SYSTEM": "Escherichia coli",
    "PARAMETER": "MIC",
    "ASSAY VALUE": "32 mg/L"
  },
  {
    "COMPOUND": "CC(=O)NC[C@H]1CN(c2ccc(OC3CCN(C(=O)COCc4ccccc4)CC3)cc2)C(=O)O1",
    "ASSAYED SYSTEM": "Escherichia coli",
    "PARAMETER": "MIC",
    "ASSAY VALUE": "128 mg/L"
  },
  {
    "COMPOUND": "CC(=O)NC[C@H]1CN(c2ccc(OC3CN(C(=O)CO)C3)c(F)c2)C(=O)O1",
    "ASSAYED SYSTEM": "Escherichia coli",
    "PARAMETER": "MIC",
    "ASSAY VALUE": "> 128 mg/L"
  },
  {
    "COMPOUND": "CC(=O)NC[C@H]1CN(c2ccc(OC3CCN(C(=O)COCc4ccccc4)CC3)c(F)c2)C(=O)O1",
    "ASSAYED SYSTEM": "Escherichia coli",
    "PARAMETER": "MIC",
    "ASSAY VALUE": "> 128 mg/L"
  }
]

Now for a further compound.
Prompt: Query: MIC; subject: CC(=O)NC[C@H]1CN(c2ccc(OC3CCCN(C(=O)COCc4ccccc4)C3)c(F)c2)C(=O)O1 (stereo partly specified)
Response: > 128 mg/L

====

Tested on: Staphylococcus aureus
Experiment: Antibacterial activity against methicillin - resistant Staphylococcus aureus (MRSA OC2878)
Assay type: functional
PARAMETER: MIC (mg/L)
Write it as a number; the unit mg/L goes unstated.

[
  {
    "COMPOUND": "CC(=O)NC[C@H]1CN(c2ccc(OC3CCCN(C(=O)CO)C3)c(F)c2)C(=O)O1 (some centres undefined)",
    "UNIT SPEC": "mg/L",
    "MIC": 8
  },
  {
    "COMPOUND": "CC(=O)NC[C@H]1CN(c2ccc(OC3CCN(C(=O)CO)C3)c(F)c2)C(=O)O1 (some centres undefined)",
    "UNIT SPEC": "mg/L",
    "MIC": 8
  },
  {
    "COMPOUND": "CC(=O)NC[C@H]1CN(c2ccc(OC3CCN(C(=O)COCc4ccccc4)CC3)cc2)C(=O)O1",
    "UNIT SPEC": "mg/L",
    "MIC": 8
  },
  {
    "COMPOUND": "CC(=O)NC[C@H]1CN(c2ccc(OC3CCN(C(=O)CO)CC3)cc2)C(=O)O1",
    "UNIT SPEC": "mg/L",
    "MIC": 16
  },
  {
    "COMPOUND": "CC(=O)NC[C@H]1CN(c2ccc(OC3CCCN(C(=O)COCc4ccccc4)C3)c(F)c2)C(=O)O1 (some centres undefined)",
    "UNIT SPEC": "mg/L",
    "MIC": 32
  },
  {
    "COMPOUND": "CC(=O)NC[C@H]1CN(c2ccc(OC3CCN(C(=O)CO)CC3)c(F)c2)C(=O)O1",
    "UNIT SPEC": "mg/L",
    "MIC": 4
  }
]

Prompt: Query: MIC; subject: CC(=O)NC[C@H]1CN(c2ccc(OC3CN(C(=O)CO)C3)c(F)c2)C(=O)O1
Response: 8

Prompt: Please give the result for CC(=O)NC[C@H]1CN(c2ccc(OC3CCN(C(=O)COCc4ccccc4)C3)c(F)c2)C(=O)O1 (some centres undefined) too.
Response: 16

Prompt: Please give the result for CC(=O)NC[C@H]1CN(c2ccc(OC3CN(C(=O)COCc4ccccc4)C3)c(F)c2)C(=O)O1 too.
Response: 8
